Reported pIC50, SST2 (Homo sapiens, UniProt P30874).
Entry type: numeric. Quantity: pIC50, the -log10 of concentration in molar units.

[[record]]
compound = "C[C@@H](O)[C@H](NC(=O)C1CSSCC(NC(=O)C(Cc2ccccc2)NC(=O)CNC(=O)CNC(=O)CNC(=O)C(CC(=O)O)NC(=O)[C@@H](CC(=O)O)NC(=O)C(CNC(=O)CN2CCN(CC(=O)O)CCN(CC(=O)O)CCN(CC(=O)O)CC2)NC(=O)[C@@H](CN)NC(=O)C[N+](C)(C)Cc2ccc([Si](F)(C(C)(C)C)C(C)(C)C)cc2)C(=O)N[C@@H](Cc2ccc(O)cc2)C(=O)NC(Cc2c[nH]c3ccccc23)C(=O)N[C@@H](CCCCN)C(=O)N[C@@H]([C@@H](C)O)C(=O)N1)C(=O)O (some centres unmarked) (natGa complex, metal not drawn) [[Ga]51]"
value = 8.45


IN: Report pIC50, nothing else, for this compound: C[C@@H](O)[C@H](NC(=O)C1CSSCC(NC(=O)C(Cc2ccccc2)NC(=O)CNC(=O)CNC(=O)CNC(=O)C(CC(=O)O)NC(=O)[C@@H](CC(=O)O)NC(=O)C(CCCCN)NC(=O)[C@@H](CNC(=O)C[N+](C)(C)Cc2ccc([Si](F)(C(C)(C)C)C(C)(C)C)cc2)NC(=O)CN2CCN(CC(=O)O)CCN(CC(=O)O)CCN(CC(=O)O)CC2)C(=O)N[C@@H](Cc2ccc(O)cc2)C(=O)NC(Cc2c[nH]c3ccccc23)C(=O)N[C@@H](CCCCN)C(=O)N[C@@H]([C@@H](C)O)C(=O)N1)C(=O)O (some centres unmarked) (natLu complex, metal not drawn) [[Lu]45]
OUT: 8.47

* * *

- procedureDetails: Biodistribution of 18F-labeled SST2 ligands in AR42J tumor-bearing mice
- Type: in vivo
- conditionDescription: female, CD1 nu/nu, mouse, intestine, iv, total radioactivity, 1 h post injection, tail vein; read-out: Intestine % ID/g ± SD
Collected tissue uptake at 1 h values appear next to each entry.
Please give a number only; it is taken to be in %ID/g.

[[record]]
compound = "C[C@@H](O)[C@H](NC(=O)C1CSSCC(NC(=O)C(Cc2ccccc2)NC(=O)CNC(=O)CNC(=O)[C@@H](CC(=O)O)NC(=O)C(CC(=O)O)NC(=O)[C@@H](CNC(=O)CN2CCN(CC(=O)O)CCN(CC(=O)O)CCN(CC(=O)O)CC2)NC(=O)C[N+](C)(C)Cc2ccc([Si](F)(C(C)(C)C)C(C)(C)C)cc2)C(=O)N[C@@H](Cc2ccc(O)cc2)C(=O)NC(Cc2c[nH]c3ccccc23)C(=O)N[C@@H](CCCCN)C(=O)N[C@@H]([C@@H](C)O)C(=O)N1)C(=O)O (some centres unmarked) (natGa complex, metal not drawn) [[Ga]24]"
readout = "tissue uptake at 1 h"
value = 1.41


Turning now to a further record.
IN: Please indicate tissue uptake at 1 h recorded for C[C@@H](O)[C@H](NC(=O)C1CSSCC(NC(=O)C(Cc2ccccc2)NC(=O)CNC(=O)CNC(=O)CNC(=O)C(CC(=O)O)NC(=O)[C@@H](CC(=O)O)NC(=O)C(CCCCN)NC(=O)[C@@H](CNC(=O)C[N+](C)(C)Cc2ccc([Si](F)(C(C)(C)C)C(C)(C)C)cc2)NC(=O)CN2CCN(CC(=O)O)CCN(CC(=O)O)CCN(CC(=O)O)CC2)C(=O)N[C@@H](Cc2ccc(O)cc2)C(=O)NC(Cc2c[nH]c3ccccc23)C(=O)N[C@@H](CCCCN)C(=O)N[C@@H]([C@@H](C)O)C(=O)N1)C(=O)O (some centres unmarked) (natGa complex, metal not drawn) [[Ga]45]
OUT: 1.27

Source: patent US20240317780A1
